Entries and their measured remaining at 0.5 h, 3 µM follow.
Test: Metabolic stability in rat liver microsome assessed as compound remaining at 3 uM measured at 30 mins in presence of NADPH by LC-MS/MS analysis
Format: ADME
Conditions: liver microsomes, read-out: Stability
Please state the figure in %; there is no need to write the unit.

Completed entries (count: 6):
SUBSTANCE_SMILES	MEASURE	UNIT_LABEL	VALUE
CC(C)Oc1cnc(-c2nsc(Nc3ncccc3N(C)C)n2)cc1C(F)(F)F	remaining at 0.5 h, 3 µM	%	93
CC(C)Oc1cnc(-c2nsc(Nc3ncccc3C(C)C)n2)cc1C(F)(F)F	remaining at 0.5 h, 3 µM	%	96
Cc1cccnc1Nc1nnc(-c2ccc(OC3CCOCC3)cn2)o1	remaining at 0.5 h, 3 µM	%	39
Cc1cccnc1Nc1nnc(-c2ccc(OC3CCOCC3)cn2)s1	remaining at 0.5 h, 3 µM	%	89
COc1ccc(Nc2nc(-c3ccccn3)ns2)nc1	remaining at 0.5 h, 3 µM	%	78
Cc1cccnc1Nc1nc(-c2ncc(OC(C)C)cn2)ns1	remaining at 0.5 h, 3 µM	%	90

Reported remaining at 0.5 h, 3 µM, molecule Cc1cccnc1Nc1nsc(-c2ccc(OC3CCOCC3)cn2)n1 : ____
89

Reported remaining at 0.5 h, 3 µM, molecule Cc1cccnc1Nc1nc(-c2cc(C(=O)N(C)C)c(OC(C)C)cn2)ns1 : ____
90
